- MEASURED ON: Kit (Homo sapiens, UniProt P10721)
- Sequence (P10721 26-976): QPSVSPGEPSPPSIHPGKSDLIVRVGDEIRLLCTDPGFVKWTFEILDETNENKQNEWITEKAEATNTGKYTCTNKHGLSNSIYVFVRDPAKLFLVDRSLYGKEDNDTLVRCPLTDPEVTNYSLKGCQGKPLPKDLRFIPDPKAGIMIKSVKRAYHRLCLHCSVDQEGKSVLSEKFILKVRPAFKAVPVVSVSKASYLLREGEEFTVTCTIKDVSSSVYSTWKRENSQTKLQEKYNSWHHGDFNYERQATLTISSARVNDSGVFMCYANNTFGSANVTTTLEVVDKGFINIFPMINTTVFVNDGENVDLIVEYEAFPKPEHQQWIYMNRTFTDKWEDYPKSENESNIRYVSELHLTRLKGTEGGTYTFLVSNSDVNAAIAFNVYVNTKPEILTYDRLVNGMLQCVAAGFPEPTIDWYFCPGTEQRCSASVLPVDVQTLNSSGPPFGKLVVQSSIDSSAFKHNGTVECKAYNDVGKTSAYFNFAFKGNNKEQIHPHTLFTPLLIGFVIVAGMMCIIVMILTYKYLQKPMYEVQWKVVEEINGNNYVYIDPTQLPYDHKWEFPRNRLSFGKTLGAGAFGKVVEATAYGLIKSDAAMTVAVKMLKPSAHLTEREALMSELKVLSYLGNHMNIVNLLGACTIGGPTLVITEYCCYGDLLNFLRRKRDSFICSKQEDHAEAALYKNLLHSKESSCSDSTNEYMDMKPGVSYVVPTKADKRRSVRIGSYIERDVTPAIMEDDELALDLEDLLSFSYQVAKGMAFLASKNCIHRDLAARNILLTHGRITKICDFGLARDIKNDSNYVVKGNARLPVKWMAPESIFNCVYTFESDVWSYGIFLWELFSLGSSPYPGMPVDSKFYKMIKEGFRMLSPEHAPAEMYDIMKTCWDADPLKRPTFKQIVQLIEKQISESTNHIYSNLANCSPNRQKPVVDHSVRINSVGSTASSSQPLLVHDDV
- PROTOCOL: Z'-Lyte biochemical kinase assay (SelectScreen), Kit
- ASSAY CONTEXT: at 50 nM, in duplicate
PROPERTY MEASURED: inhibition at 0.05 µM (%)
Expressed in %, but write only the number.

Consider the reported inhibition at 0.05 µM for these compounds:
O=C(NCc1cncc(F)c1)c1cccc(Oc2ccnc3ccccc23)c1: 14
Cc1c(Oc2ccnc3cc(Cl)ccc23)cccc1C(=O)NCc1ccncc1: 10
COc1cc2nccc(Oc3cc(C(=O)NCc4cccc(F)c4)ccc3F)c2cc1OC: 32

Next compound, inhibition at 0.05 µM to be filled in.
Which measured inhibition at 0.05 µM value corresponds to `COc1cc2nccc(Oc3cc(C(=O)N[C@H](C)C4CCCCC4)ccc3F)c2cc1OC` ?
2

====

- MEASURED ON: PDGFRB (Homo sapiens)
- PROTOCOL: Z'-Lyte biochemical kinase assay (SelectScreen), PDGFRB
- ASSAY CONTEXT: at 50 nM, in duplicate
PROPERTY MEASURED: inhibition at 0.05 µM (%)
Expressed in %, but write only the number.

Consider the reported inhibition at 0.05 µM for these molecules:
CN(C)c1ccc2c(Oc3cccc(C(=O)NCc4ccncc4)c3)ccnc2c1 [compound 140]: 19
COc1ccccc1CNC(=O)c1ccc(F)c(Oc2ccnc3cc(OC)c(OC)cc23)c1 [compound 92]: 60
COc1cc2nccc(Oc3cccc(C(=O)NCCc4ccccc4)c3)c2cc1OC [compound 25]: 39
CNc1ccc2c(Oc3cc(C(=O)NCc4ccncc4)ccc3F)ccnc2c1 [compound 142]: 9
COc1ccccc1CNC(=O)c1ccc(F)c(Oc2ccnc3ccccc23)c1 [compound 99]: 20

Which measured inhibition at 0.05 µM value corresponds to CNc1ccc2c(Oc3cccc(C(=O)NCc4cccc(F)c4)c3C)ccnc2c1 [compound 151] ?
21

And then CNc1ccc2c(Oc3cccc(C(=O)NCc4ccncc4)c3C)ccnc2c1 [compound 148] , what is it?
12

And then O=C(NCc1cncc(F)c1)c1cccc(Oc2ccnc3ccccc23)c1 [compound 17] , what is it?
12

And then COc1ccc2c(Oc3cccc(C(=O)NCc4ccncc4)c3C)ccnc2c1 [Compounds 32] , what is it?
6

And then O=C(NCC1CCCCC1)c1cccc(Oc2ccnc3ccccc23)c1 [compound 3] , what is it?
27

And then CN(C)c1ccc2c(Oc3cc(C(=O)NCc4ccncc4)ccc3F)ccnc2c1 [compound 143] , what is it?
32

====

- MEASURED ON: PDGFRB (Homo sapiens, UniProt P09619)
- Sequence (P09619 33-1106): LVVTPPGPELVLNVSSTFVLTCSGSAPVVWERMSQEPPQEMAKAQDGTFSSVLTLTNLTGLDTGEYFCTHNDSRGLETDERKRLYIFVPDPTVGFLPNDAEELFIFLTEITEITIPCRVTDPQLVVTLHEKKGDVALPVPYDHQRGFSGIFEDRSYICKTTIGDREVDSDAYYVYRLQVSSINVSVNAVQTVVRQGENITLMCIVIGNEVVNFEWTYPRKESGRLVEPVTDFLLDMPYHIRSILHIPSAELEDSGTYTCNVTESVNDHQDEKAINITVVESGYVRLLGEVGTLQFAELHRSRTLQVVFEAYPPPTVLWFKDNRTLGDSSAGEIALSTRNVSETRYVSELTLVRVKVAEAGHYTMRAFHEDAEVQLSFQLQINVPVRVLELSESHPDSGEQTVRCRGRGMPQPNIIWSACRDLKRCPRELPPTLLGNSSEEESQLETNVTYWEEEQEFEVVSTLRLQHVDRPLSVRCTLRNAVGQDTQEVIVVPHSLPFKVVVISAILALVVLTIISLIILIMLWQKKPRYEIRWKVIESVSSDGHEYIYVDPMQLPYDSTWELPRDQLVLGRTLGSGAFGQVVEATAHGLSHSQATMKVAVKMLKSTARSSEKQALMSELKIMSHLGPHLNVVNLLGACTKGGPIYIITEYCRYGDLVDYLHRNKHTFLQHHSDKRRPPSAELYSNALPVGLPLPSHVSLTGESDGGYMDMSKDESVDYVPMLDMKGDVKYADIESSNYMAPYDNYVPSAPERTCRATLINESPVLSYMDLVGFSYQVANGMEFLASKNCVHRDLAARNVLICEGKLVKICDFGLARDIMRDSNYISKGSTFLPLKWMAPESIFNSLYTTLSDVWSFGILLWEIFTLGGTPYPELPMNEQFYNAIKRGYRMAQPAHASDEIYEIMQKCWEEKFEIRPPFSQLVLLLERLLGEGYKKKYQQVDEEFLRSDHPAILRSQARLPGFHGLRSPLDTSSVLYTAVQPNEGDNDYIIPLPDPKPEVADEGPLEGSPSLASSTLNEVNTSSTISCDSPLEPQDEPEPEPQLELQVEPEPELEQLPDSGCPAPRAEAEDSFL
- PROTOCOL: Z'-Lyte biochemical kinase assay (SelectScreen), PDGFRB
- ASSAY CONTEXT: at 50 nM, in duplicate
PROPERTY MEASURED: inhibition at 0.05 µM

Consider the reported inhibition at 0.05 µM for these molecules:
COc1ccc2c(Oc3cccc(C(=O)NCc4cccc(F)c4)c3C)ccnc2c1 [compound 33]: 14%
COc1cc2nccc(Oc3cc(F)cc(C(=O)N[C@H](C)C4CCCCC4)c3)c2cc1OC [compound 90]: 28%
O=C(NCc1ccc(F)cc1)c1cccc(Oc2ccnc3ccccc23)c1 [compound 16]: 24%
COc1ccccc1CNC(=O)c1cc(F)cc(Oc2ccnc3cc(OC)c(OC)cc23)c1 [compound 89]: 48%
COc1ccc2c(Oc3cc(C(=O)NCc4ccncc4)ccc3F)ccnc2c1 [compound 98]: 23%
COc1ccccc1CNC(=O)c1cccc(Oc2ccnc3cc(OC)c(OC)cc23)c1 [compound 26]: 50%
COc1cc2nccc(Oc3cccc(C(=O)NCc4cncc(F)c4)c3)c2cc1OC [compound 29]: 28%
Cc1c(Oc2ccnc3cc(N(C)C)ccc23)cccc1C(=O)NCc1cccc(F)c1 [compound 152]: 25%
Cc1c(Oc2ccnc3cc(N4CCC4)ccc23)cccc1C(=O)NCc1ccncc1 [compound 150]: 15%

Next molecule, inhibition at 0.05 µM to be filled in.
Which measured inhibition at 0.05 µM value corresponds to COc1ccc2c(Oc3cccc(C(=O)NCc4ccccc4)c3)ccnc2c1 [compound 85] ?
28%
